Each recorded value in this set is attributed to the supplement of paper PMC10065799.

sequences and their reported phosphorylation enrichment
tested on: AncSZ; experiment: phosphorylation enrichment, bacterial display (enrichment ratio); higher = better substrate or ligand; peptides without Tyr show the background;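 note: 11-residue human phosphosite peptides and single-mutation variants displayed on the E. coli surface, counted by deep sequencing, each peptide's frequency after selection divided by its frequency in the unselected input library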;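 note: frequency after pTyr selection over input frequency; kinase dosed for 20-30% of maximal phosphorylation in three min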
quantityName: phosphorylation enrichment

# monomerSequence, result
data = [
    ("DRLASYLDKMR [KRT17_Y98_V102M]", 0.697),
    ("NARGLYYKLHN [GATA2_Y376_C373R]", 1.11),
    ("RQNQEYEILLD [KRT39_Y379]", 1.38),
    ("NHQYDYTFDWT [CSNK1A1_Y294]", 1.38),
    ("EEGRVYVFHLS [ITGAE_Y549_R552H_YF]", 1.18),
    ("PPPPAYDDMAQ [TNK2_Y635_V638M]", 1.25),
    ("ISIFHYAKGQP [MPZ_Y82]", 1.04),
    ("WKKKIYEESST [MOCS2_Y170_E168K]", 0.818),
    ("AFAEVYEGQVS [ALK_Y1131_G1128A]", 1.07),
    ("SLIDGYYRLTA [JAK2_Y372]", 0.92),
    ("GRKTLYSFFSP [UNG_Y8_Q4R]", 0.529),
    ("SARHHYESLQT [BIN1_Y157]", 0.532),
    ("RVNSAYQDKVS [ACAN_Y100]", 0.849),
    ("SGPRRYTIATL [TTR_Y125_A129T]", 0.472),
    ("HNMPIYEGFAL [ACTA1_Y168_V165M_YF]", 1.44),
    ("CNTIHYNFMCN [TP53_Y234_T230N_YF]", 0.787),
    ("YRRITYHNWRH [PDE6B_Y556]", 0.642),
    ("NELTYYCYKKD [CD59_Y87_C89Y]", 1.81),
    ("KNNDGYTDYAE [MCFD2_Y135_I136T]", 0.941),
    ("RPDSPYSRPHD [DOK2_Y271]", 0.71),
    ("NYYDLYGGEKF [PTPN11_Y66_D61N]", 1.48),
    ("AEVDTYCRHNY [HLA-DRB1_Y107_A103E]", 0.771),
    ("AAYNRYDQERF [CDC73_Y293]", 0.681),
    ("PTTKTYFPHFD [HBA1_Y43]", 0.66),
    ("EYFENYIEELK [PARP4_Y218]", 1.44),
    ("TFLRTYTDTMQ [TSPAN7_Y124_A127T]", 0.68),
    ("GSERRYSREGG [PTPRN2_Y139]", 0.703),
    ("ILNANCMAKRL [GLDC_Y839_Y839C]", 0.612),
    ("KLKEKYQKDIA [HMGB1_Y155_E156Q]", 0.57),
]

====

molecular target: FGFR1 (UniProt P11362); experiment: phosphorylation enrichment, bacterial display (enrichment ratio); higher = better substrate or ligand; peptides without Tyr show the background
Sequence (P11362 whole entry, looked up): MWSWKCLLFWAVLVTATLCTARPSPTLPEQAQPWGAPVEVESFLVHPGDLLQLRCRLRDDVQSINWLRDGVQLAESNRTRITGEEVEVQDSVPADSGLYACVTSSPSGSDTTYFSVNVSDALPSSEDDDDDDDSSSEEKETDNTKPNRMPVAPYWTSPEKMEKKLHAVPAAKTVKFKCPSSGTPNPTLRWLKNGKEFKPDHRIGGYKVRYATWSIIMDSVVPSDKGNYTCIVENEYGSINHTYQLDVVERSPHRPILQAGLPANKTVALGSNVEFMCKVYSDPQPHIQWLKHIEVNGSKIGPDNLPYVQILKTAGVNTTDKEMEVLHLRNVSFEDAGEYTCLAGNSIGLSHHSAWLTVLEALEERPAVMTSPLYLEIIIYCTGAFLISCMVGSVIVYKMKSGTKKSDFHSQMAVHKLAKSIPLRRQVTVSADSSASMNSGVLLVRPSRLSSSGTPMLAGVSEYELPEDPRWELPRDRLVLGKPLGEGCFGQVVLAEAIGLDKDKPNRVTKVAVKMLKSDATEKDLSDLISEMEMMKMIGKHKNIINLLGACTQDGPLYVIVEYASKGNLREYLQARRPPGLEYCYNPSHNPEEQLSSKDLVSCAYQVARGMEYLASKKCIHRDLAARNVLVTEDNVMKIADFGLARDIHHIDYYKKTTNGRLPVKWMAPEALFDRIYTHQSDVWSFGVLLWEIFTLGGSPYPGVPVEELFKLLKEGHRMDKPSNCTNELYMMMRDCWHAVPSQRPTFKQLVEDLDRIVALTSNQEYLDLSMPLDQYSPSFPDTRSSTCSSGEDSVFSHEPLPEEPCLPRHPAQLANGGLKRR
Kindly return condition met if reported phosphorylation enrichment is no lower than 0.5; return condition not met if it is lower.

# monomerSequence, cat
measured = [
    ("AKYLGYPPPEI [KDR_Y357]", "condition not met"),
    ("SVVVPCEPPEV [TP53_Y220_Y220C]", "condition met"),
    ("GRLPEYNTPIA [CCDC151_Y542_R545P]", "condition not met"),
    ("VSLLPYFPAIM [IPO4_Y518_A513V]", "condition met"),
    ("FQCLRYIKQLG [SAMHD1_Y146_R143C]", "condition not met"),
    ("DAICFYRMENA [NPHS2_Y195_YF]", "condition met"),
    ("LEDEVCAQKMK [TPM2_Y261_Y261C]", "condition met"),
    ("GGQVFYNSEFG [FLT4_Y1333_YF]", "condition met"),
    ("FLQEIYNSNNQ [FGG_Y140_YF]", "condition met"),
    ("RPDSPYSRPHD [DOK2_Y271]", "condition not met"),
    ("VDDEIYFFRKP [PBRM1_Y1289_YF]", "condition met"),
    ("DRLASYLDKVR [KRT10_Y160]", "condition not met"),
    ("FLQTDYTSQVS [FRMPD1_Y846]", "condition not met"),
    ("MSSHHCDYKKY [ZNF445_Y428_Y428C]", "condition met"),
    ("RKKEEYKMALY [F8_Y1990]", "condition met"),
    ("RGDTVYTVNRM [KBTBD13_Y404]", "condition met"),
    ("RSFSPYDFQPC [TNS1_Y796_YF]", "condition met"),
    ("QLATEYVFSDF [PANX1_Y10]", "condition met"),
    ("WNDPDYMDSRR [GAA_Y407_L405P]", "condition met"),
    ("DRLASYLDKAR [KRT14_Y129_V133A]", "condition not met"),
    ("PLGPLYASSNP [INSR_Y992]", "condition met"),
    ("KGLMPYGQPRP [SRRT_Y798_Q793K]", "condition not met"),
    ("DKTGEYPVPLT [ACADM_Y73_I78T]", "condition not met"),
    ("GAVGNYSGGLA [MGMT_Y158]", "condition not met"),
    ("AGLVQYFMEHH [PTPN11_Y80_E76G_YF]", "condition met"),
    ("KKLHEYNTQFQ [PIK3R1_Y452]", "condition not met"),
    ("DRLASYLDKMR [KRT17_Y98_V102M]", "condition not met"),
    ("RRIHSYRGYLW [VHL_Y112_H115Y]", "condition met"),
]

====

target: Fyn (UniProt P06241); test: phosphorylation enrichment, bacterial display (enrichment ratio); higher = better substrate or ligand; peptides without Tyr show the background
Sequence (P06241 whole entry, looked up): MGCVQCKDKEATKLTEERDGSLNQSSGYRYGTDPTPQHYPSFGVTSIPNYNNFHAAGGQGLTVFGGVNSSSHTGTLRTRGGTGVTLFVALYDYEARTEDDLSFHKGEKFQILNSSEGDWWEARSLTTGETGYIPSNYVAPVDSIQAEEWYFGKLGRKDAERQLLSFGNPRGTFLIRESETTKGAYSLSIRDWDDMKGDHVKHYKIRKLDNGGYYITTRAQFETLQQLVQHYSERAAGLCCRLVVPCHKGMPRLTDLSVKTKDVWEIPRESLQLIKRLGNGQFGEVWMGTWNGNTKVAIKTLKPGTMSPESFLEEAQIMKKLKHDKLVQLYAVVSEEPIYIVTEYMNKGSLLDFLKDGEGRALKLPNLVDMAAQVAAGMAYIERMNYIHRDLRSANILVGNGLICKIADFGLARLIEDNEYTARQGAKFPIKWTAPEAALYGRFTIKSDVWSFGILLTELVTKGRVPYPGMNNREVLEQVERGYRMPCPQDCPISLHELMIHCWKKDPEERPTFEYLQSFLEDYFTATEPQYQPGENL
sequences and their reported phosphorylation enrichment
quantityName: phosphorylation enrichment

# monomerSequence, quantityName, numericReadout
rows = [
    ("HNLDYYKKTTN [FGFR3_Y648]", "phosphorylation enrichment", 0.653),
    ("VRFMEYETQVK [TARDBP_Y155_T153M]", "phosphorylation enrichment", 0.384),
    ("EEHIPCTHMNG [INSR_Y1361_Y1361C]", "phosphorylation enrichment", 0.436),
    ("TFLRTYTDTMQ [TSPAN7_Y124_A127T]", "phosphorylation enrichment", 0.464),
    ("KCCCIYEKPRA [PPP1R11_Y64]", "phosphorylation enrichment", 1.95),
    ("QQPGPYDRPGA [HNRNPH2_Y210_R206Q]", "phosphorylation enrichment", 0.565),
    ("PVGDVYKKKGL [NMNAT1_Y55_A54V]", "phosphorylation enrichment", 0.465),
    ("EGLKVYVNGTL [ADGRD1_Y183]", "phosphorylation enrichment", 0.497),
    ("CPSLLYSPVSS [CAMKK2_Y128_P127L]", "phosphorylation enrichment", 1.87),
    ("LFCLHYFHRTF [SRD5A2_Y91_V89L]", "phosphorylation enrichment", 1.07),
    ("GEEIKYMLWLS [OTC_Y55]", "phosphorylation enrichment", 0.493),
    ("ARGTRYRFVSQ [UCN3_Y95_YF]", "phosphorylation enrichment", 0.52),
    ("RRIHSYRGYLW [VHL_Y112_H115Y]", "phosphorylation enrichment", 0.551),
    ("DDHFTYSRFPW [LY75_Y888_YF]", "phosphorylation enrichment", 4.83),
    ("SSEFHCVGGFF [CTSC_Y347_Y347C_YF]", "phosphorylation enrichment", 0.44),
    ("LGPSDYFGEIV [PRKAR1A_Y323_A328V]", "phosphorylation enrichment", 0.655),
    ("ALRHFYKLNII [ETV6_Y402_YF]", "phosphorylation enrichment", 0.471),
    ("FKDYFYCWNTS [AICDA_Y146_F151S]", "phosphorylation enrichment", 0.618),
    ("ASKEPYYVHCI [MYO1D_Y585_R588H]", "phosphorylation enrichment", 0.482),
    ("FFRKFCNKSED [RYR1_Y4864_Y4864C]", "phosphorylation enrichment", 0.589),
    ("KAESWYQTKYE [KRT75_Y342_E337K]", "phosphorylation enrichment", 0.485),
    ("AAYNRYDQERF [CDC73_Y293]", "phosphorylation enrichment", 0.457),
    ("RNNTEYVRDIG [MUSK_Y577_I575T]", "phosphorylation enrichment", 0.496),
    ("SRDTRYLVLAV [AMH_Y195]", "phosphorylation enrichment", 0.492),
    ("RGNMYYENSYA [EGFR_Y113]", "phosphorylation enrichment", 0.832),
    ("YTHSDYQYGQR [PKP2_Y166_S169G]", "phosphorylation enrichment", 0.476),
    ("MQMEEYRGRVE [BTNL2_Y91_W94R]", "phosphorylation enrichment", 0.379),
    ("FTGDIYSNSNL [LZTR1_Y141_YF]", "phosphorylation enrichment", 6.36),
    ("NYYDLYGGEKF [PTPN11_Y66_D61N]", "phosphorylation enrichment", 5.82),
]
